Tested on: HepG2 2.2.15 cells
Experiment: MTS tetrazolium dye uptake cell viability assay (primary assay)
Type: cell-based, human
quantity kind: CC50

>>> val("CC(C)OC(=O)[C@H](C)NP(=O)(COC1COC(n2cnc3c(=O)[nH]c(N)nc32)C1)Oc1ccccc1 (stereo partly shown) [compound 41]")
"> 100 µM"

----------
Test: MTS tetrazolium dye uptake cell viability assay (primary assay)
Format: cell-based, human
Conditions: human, HepG2 2.2.15 cells
quantity kind: CC50 at 6 days

>>> val("Cc1cn([C@H]2C[C@@H](OCP(=O)(N[C@@H](CC(=O)OCCC(C)C)C(=O)OCCC(C)C)Oc3ccccc3)CO2)c(=O)[nH]c1=O (stereo partly shown)")
"59.6 µM"
>>> val("Nc1ncnc2c1ncn2[C@H]1C[C@@H](OCP(=O)(O)O)CO1 [PMDTA, reference compound]")
"> 100 µM"
>>> val("Nc1ccn([C@@H]2CS[C@H](CO)O2)c(=O)n1 [3TC (Lamivudine), Lamivudine, reference compound]")
"> 2 µM"
>>> val("CC(C)OC(=O)[C@H](C)NP(=O)(CO[C@H]1CO[C@@H](n2cnc3c(=O)[nH]c(N)nc32)C1)Oc1ccccc1 (stereo partly shown)")
"> 100 µM"
>>> val("Cc1cn([C@H]2C[C@@H](OCP(=O)(O)O)CO2)c(=O)[nH]c1=O [PMDTT, reference compound]")
"> 100 µM"
>>> val("CC(C)OC(=O)[C@H](C)NP(=O)(CO[C@H]1CO[C@@H](n2cnc3c(N)ncnc32)C1)Oc1ccccc1 (stereo partly shown)")
"> 10 µM"
>>> val("CC(C)CCOC(=O)C[C@H](NP(=O)(CO[C@H]1CO[C@@H](n2cnc3c(N)ncnc32)C1)Oc1ccccc1)C(=O)OCCC(C)C (stereo partly shown)")
"55.5 µM"
>>> val("CC(C)OC(=O)[C@H](C)NP(=O)(CO[C@H]1CO[C@@H](n2ccc(N)nc2=O)C1)Oc1ccccc1 (stereo partly shown)")
"> 100 µM"
>>> val("Cc1cn([C@H]2C[C@@H](OCP(=O)(N[C@@H](C)C(=O)OC(C)C)Oc3ccccc3)CO2)c(=O)[nH]c1=O (stereo partly shown)")
"> 100 µM"
>>> val("CCCOC(=O)[C@H](Cc1ccccc1)NP(=O)(CO[C@H]1CO[C@@H](n2cnc3c(=O)[nH]c(N)nc32)C1)N[C@@H](Cc1ccccc1)C(=O)OCCC")
"> 100 µM"

----------
Tested on: HBV wild-type strain ayw1 in HepG2 2.2.15 cells
Assay: Primary anti-HBV assay: extracellular HBV DNA copy number by real-time qPCR (TaqMan)
Assay type: cell-based, Hepatitis B virus
Settings: Hepatitis B virus, 144 h; reduction in extracellular HBV DNA, HepG2 2.2.15 cells, six days; read-out: EC90
quantity kind: EC90

>>> val("Nc1ncnc2c1ncn2[C@H]1C[C@@H](OCP(=O)(O)O)CO1 [PMDTA, reference compound]")
"> 100 µM"
>>> val("Cc1cn([C@H]2C[C@@H](OCP(=O)(O)O)CO2)c(=O)[nH]c1=O [PMDTT, reference compound]")
"> 100 µM"
>>> val("Nc1ccn([C@@H]2CS[C@H](CO)O2)c(=O)n1 [3TC (Lamivudine), Lamivudine, reference compound]")
"> 2 µM"
>>> val("CCCOC(=O)[C@H](Cc1ccccc1)NP(=O)(CO[C@H]1CO[C@@H](n2cnc3c(=O)[nH]c(N)nc32)C1)N[C@@H](Cc1ccccc1)C(=O)OCCC")
"> 100 µM"

The origin of these recorded values is patent US10087209B2.
